Just for reference, patent US11911383B2 is where these values come from.

Assay: Solubility of palbociclib (free base) in various aqueous buffers, with total degradation by HPLC
Assay type: physicochemical
Settings: aqueous buffer solution, 25 °C, pH 4.98, aqueous buffer, thermodynamic from solid, Sample K: 5 mL D + 10 mL E, pH 4.98; read-out: Solubility
measured_endpoint: solubility at 28 h (mg/mL)

1) CC(=O)c1c(C)c2cnc(Nc3ccc(N4CCNCC4)cn3)nc2n(C2CCCC2)c1=O    0.055

---

Assay: Solubility of palbociclib (free base) in various aqueous buffers, with total degradation by HPLC
Assay type: physicochemical
Conditions: aqueous buffer solution, 25 °C, pH 2.31, aqueous buffer, thermodynamic from solid, Sample M: 0.1M DL Lactic Acid, pH 2.31; read-out: Solubility
measured_endpoint: solubility at 28 h

1) CC(=O)c1c(C)c2cnc(Nc3ccc(N4CCNCC4)cn3)nc2n(C2CCCC2)c1=O    36.3 mg/mL

---

Assay: Solubility of palbociclib (free base) in various aqueous buffers, with total degradation by HPLC
Assay type: physicochemical
Conditions: aqueous buffer solution, 25 °C, pH 2.07, aqueous buffer, thermodynamic from solid, Sample C: 0.2M DL Lactic Acid, pH 2.07; read-out: Solubility
measured_endpoint: solubility at 28 h (mg/mL)

1. CC(=O)c1c(C)c2cnc(Nc3ccc(N4CCNCC4)cn3)nc2n(C2CCCC2)c1=O    45.7

---

Assay: Solubility of palbociclib (free base) in various aqueous buffers, with total degradation by HPLC
Format: physicochemical
Details: aqueous buffer solution, 25 °C, pH 3.93, aqueous buffer, thermodynamic from solid, Sample I: 8 mL D + 2 mL E, pH 3.93; read-out: Solubility
measured_endpoint: solubility at 28 h

1. CC(=O)c1c(C)c2cnc(Nc3ccc(N4CCNCC4)cn3)nc2n(C2CCCC2)c1=O    67 µg/mL

---

Experiment: Solubility of palbociclib (free base) in various aqueous buffers, with total degradation by HPLC
Format: physicochemical
Details: aqueous buffer solution, 25 °C, pH 8.38, aqueous buffer, thermodynamic from solid, Sample E: 0.2M Sodium succinate, pH 8.38; read-out: Solubility
measured_endpoint: solubility at 28 h (µg/mL)

1) CC(=O)c1c(C)c2cnc(Nc3ccc(N4CCNCC4)cn3)nc2n(C2CCCC2)c1=O    4

---

Assay: Solubility of palbociclib (free base) in various aqueous buffers, with total degradation by HPLC
Assay type: physicochemical
Settings: aqueous buffer solution, 25 °C, pH 2.83, aqueous buffer, thermodynamic from solid, Sample O: 0.01M DL Lactic Acid, pH 2.83; read-out: Solubility
Description: The solubility of palbociclib (free base) was assessed in various aqueous buffer solutions and mixtures thereof. The buffers were prepared at concentrations ranging from 0.01 M to 0.2 M and at pH values ranging from 2.0 to 8.4. Samples were prepared by weighing and transferring approximately 200 mg of palbociclib to 3-4 mL of the buffer. […] The resulting solutions were then analyzed by HPLC to determine the solubility (mg/mL) of palbociclib in the buffer. […]
measured_endpoint: solubility at 28 h (µg/mL)

1) CC(=O)c1c(C)c2cnc(Nc3ccc(N4CCNCC4)cn3)nc2n(C2CCCC2)c1=O    3800

---

Assay: Solubility of palbociclib (free base) in various aqueous buffers, with total degradation by HPLC
Format: physicochemical
Conditions: aqueous buffer solution, 25 °C, pH 2, aqueous buffer, thermodynamic from solid, Sample B: 0.2M Malic Acid, pH 2.00; read-out: Solubility
measured_endpoint: solubility at 28 h (mg/mL)

1) CC(=O)c1c(C)c2cnc(Nc3ccc(N4CCNCC4)cn3)nc2n(C2CCCC2)c1=O    15.7
